Just for reference, patent US20240208912A1 is where these values come from.

# subject.of.test: PRMT5/MEP50 complex (Homo sapiens)
# Construct: purchased Reaction Biology Corporation
# procedure.text: PRMT5:MEP50 HotSpot Assay (full-length histone H2A substrate, plus and minus MTA)
# Type: biochemical
# test.settings: IC50 + 2 μM MTA, in the presence of 2 μM MTA
Recorded measurements of IC50, one per entry
Please reply with the bare figure in nM and do not write the unit itself.

molecule	reported.value
Cc1cc(OC2CC2)c(C#N)c(-c2c(-c3ccc4c(=O)[nH]nc(CN)c4c3)cnn2C)c1F (single isomer, unassigned) [Example 16-20]	36
CCOc1cc(-c2cnn(C)c2-c2c(F)c(C)c3cc(Cl)cnc3c2C#N)cc2c(CN)n[nH]c(=O)c12 (single isomer, unassigned) [Example 16-100]	1060
Cc1c(Cl)cc(OC2CC2)c(C#N)c1-c1c(-c2ccc3c(=O)[nH]nc(CN)c3c2)cnn1C (single isomer, unassigned) [Example 16-122]	112

Q: Name the recorded IC50 for Cn1ncc(-c2ccc3c(=O)[nH]nc(CN)c3c2)c1-c1c(F)c(Cl)c2c(c1C#N)OCCC2 (single isomer, unassigned) [Example 16-39] .
A: 366

Q: Name the recorded IC50 for Cn1ncc(-c2ccc3c(=O)[nH]nc(CN)c3c2)c1-c1c(Cl)ccc(OC2CC2)c1C#N (atropisomer, axis not shown; (M)) [Example 16-132] .
A: 251

Q: Name the recorded IC50 for Cn1ncc(-c2ccc3c(=O)[nH]nc(CN)c3c2)c1-c1c(C#N)c(OC2CC2)c2ccccc2c1Cl (single isomer, unassigned) [Example 16-23] .
A: 485

Q: Name the recorded IC50 for Cc1cc(-c2cnn(C)c2-c2c(C#N)cc3ccccc3c2Cl)cc2c(CN)n[nH]c(=O)c12 (single isomer, unassigned) [Example 16-52] .
A: 29.1

Q: Name the recorded IC50 for Cc1cc2ccccc2c(C#N)c1-c1c(-c2ccc3c(=O)[nH]nc(CN)c3c2)cnn1C (single isomer, unassigned) [Example 12-15B] .
A: 356

Q: Name the recorded IC50 for Cc1cc(OC2CC2)c(C#N)c(-c2c(-c3ccc4c(=O)[nH]nc(CN)c4c3)cnn2C)c1F (single isomer, unassigned) [Example 16-19] .
A: 173

Q: Name the recorded IC50 for COc1cc(F)c(-c2c(-c3ccc4c(=O)[nH]nc(CN)c4c3)cnn2C)c(C#N)c1OC1CC1 (atropisomer, axis not shown; (P)) [Example 16-72] .
A: 113

Q: Name the recorded IC50 for Cn1ncc(-c2ccc3c(=O)[nH]nc(CN)c3c2)c1-c1c(F)cc2ccccc2c1C#N (single isomer, unassigned) [Example 16-2] .
A: 111

Q: Name the recorded IC50 for Cn1ncc(-c2ccc3c(=O)[nH]nc(CN)c3c2)c1-c1c(F)cc2c(c1C#N)OCCC2 (atropisomer, axis not shown; (P)) [Example 16-37] .
A: 102

----------
# subject.of.test: PRMT5/MEP50 complex (Homo sapiens, UniProt O14744)
# Construct: purchased Reaction Biology Corporation
# Sequence (O14744 2-637 limits assumed): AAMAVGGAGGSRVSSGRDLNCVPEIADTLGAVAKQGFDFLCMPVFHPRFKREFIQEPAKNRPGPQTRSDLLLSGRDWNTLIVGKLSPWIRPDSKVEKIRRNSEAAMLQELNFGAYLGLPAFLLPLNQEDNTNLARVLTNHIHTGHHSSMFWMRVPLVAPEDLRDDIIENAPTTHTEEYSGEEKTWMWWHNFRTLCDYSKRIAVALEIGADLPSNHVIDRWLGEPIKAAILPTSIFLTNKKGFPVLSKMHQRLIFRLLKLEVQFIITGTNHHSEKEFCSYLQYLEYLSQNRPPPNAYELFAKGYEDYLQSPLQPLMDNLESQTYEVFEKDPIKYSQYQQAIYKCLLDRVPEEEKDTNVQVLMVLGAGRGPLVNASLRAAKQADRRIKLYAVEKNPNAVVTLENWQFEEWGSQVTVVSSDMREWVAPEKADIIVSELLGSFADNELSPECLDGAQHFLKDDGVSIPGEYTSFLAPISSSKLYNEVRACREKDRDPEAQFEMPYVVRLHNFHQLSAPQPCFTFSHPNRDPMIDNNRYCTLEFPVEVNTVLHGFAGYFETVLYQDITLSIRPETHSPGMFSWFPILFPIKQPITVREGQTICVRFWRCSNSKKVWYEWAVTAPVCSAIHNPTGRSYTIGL
# Sequence (Q9BQA1 2-342 partner limits assumed): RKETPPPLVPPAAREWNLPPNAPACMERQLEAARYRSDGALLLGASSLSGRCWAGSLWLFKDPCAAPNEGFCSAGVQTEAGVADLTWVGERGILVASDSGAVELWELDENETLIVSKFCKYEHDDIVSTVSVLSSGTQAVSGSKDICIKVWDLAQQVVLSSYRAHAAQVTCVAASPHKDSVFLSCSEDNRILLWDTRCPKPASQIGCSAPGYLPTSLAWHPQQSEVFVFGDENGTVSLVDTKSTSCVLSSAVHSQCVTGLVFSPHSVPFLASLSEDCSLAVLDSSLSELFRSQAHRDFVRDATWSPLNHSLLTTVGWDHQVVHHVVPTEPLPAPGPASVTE
# procedure.text: PRMT5:MEP50 HotSpot Assay (full-length histone H2A substrate, plus and minus MTA)
# Type: biochemical
# test.settings: IC50 + 2 μM MTA, in the presence of 2 μM MTA
Recorded measurements of pIC50, one per entry
The scale used: pIC50 is minus the common logarithm of the concentration in molar units.

Some solved entries appear below for comparison.
compound	reported.value
Cn1ncc(-c2ccc3c(=O)[nH]nc(CN)c3c2)c1-c1c(F)cc(S(F)(F)(F)(F)F)cc1C#N (atropisomer, axis not shown; (P)) [Example 16-133]	5.97
Cn1ncc(-c2ccc3c(=O)[nH]nc(CN)c3c2)c1-c1c(C#N)cc2ccccc2c1Cl (single isomer, unassigned) [Example 16-5]	6.00
Cn1ncc(-c2cc([C@H]3CCCO3)c3c(=O)[nH]nc(CN)c3c2)c1-c1sc2ccccc2c1C#N	6.58
Cn1ncc(-c2cc(Cl)c3c(=O)[nH]nc(CN)c3c2)c1-c1sc2ccccc2c1C#N	7.06

Attention now shifts to the item below.
Q: Name the recorded pIC50 for N#Cc1c(OC2CC2)cc(Cl)c(F)c1-c1c(-c2ccc3c(=O)[nH]nc(CN)c3c2)cnn1C(F)(F)F (atropisomer, axis not shown; (M)) [Example 16-120] .
A: 6.59

----------
# subject.of.test: PRMT5/MEP50 complex (Homo sapiens, UniProt O14744)
# Construct: purchased Reaction Biology Corporation
# procedure.text: PRMT5:MEP50 HotSpot Assay (full-length histone H2A substrate, plus and minus MTA)
# Assay type: biochemical
# test.settings: read-out: IC50 + 2 μM MTA, in the presence of 2 μM MTA
pIC50: −log10 of the molar value.
readout.name: pIC50

Q: Name the recorded pIC50 for Cn1ncc(-c2ccc3c(=O)[nH]nc(CN)c3c2)c1-c1c(C2COC2)ccc2c1COC2 (atropisomer, axis not shown; (M)) .
A: < 5.00

----------
# Test system: PRMT5-dependent Symmetric Di-methyl Arginine signal in HCT116 homozygous MTAP Knockout cells
# procedure.text: SYM11 In-Cell Western in HCT116 homozygous MTAP knockout cells
# Type: cell-based
# test.settings: read-out: In-cell-Western (SYM11) IC50 (nM) HCT116 MTAP_KO, 4 days of treatment, SYM11/DRAQ5 ratio as percent of DMSO control
Recorded measurements of IC50, one per entry
Please reply with the bare figure in nM and do not write the unit itself.

Some solved entries appear below for comparison.
molecule	unit.label	IC50
Cn1ncc(-c2ccc3c(=O)[nH]nc(CN)c3c2)c1-c1c(F)c(Cl)cc(OC2CC2)c1C#N [Example 4-230]	nM	6
Cn1ncc(-c2ccc3c(=O)[nH]nc(CN)c3c2)c1-c1c(F)c(Cl)cc(OC2CC2)c1C#N [Example 16-8]	nM	0.8

Q: Name the recorded IC50 for Cn1ncc(-c2ccc3c(=O)[nH]nc(CN)c3c2)c1-c1c(F)c(Cl)cc(OC2CC2)c1C#N [Example 16-7] .
A: 1000

----------
# Test system: HCT116 parental cells
# procedure.text: Proliferation assay (CellTiter-Glo, 10 days) in HCT116 parental cells
# Assay type: cell-based
# test.settings: Homo sapiens, HCT-116, 240 h, CellTiter-Glo after 10 days of treatment
# note: boundary value 200 nM maps to No; IC50 below it maps to Yes

Q: Find out if reported IC50 for Cc1c(F)c(-c2c(-c3cc(Cl)c4c(=O)[nH]nc(CN)c4c3)cnn2C)c(C#N)c2cc(Cl)cnc12 (single isomer, unassigned) [Example 16-110] is less than 200 nM
A: No

Q: Find out if reported IC50 for CC(=O)Nc1cc(-c2cnn(C)c2-c2sc3ccccc3c2C#N)cc2c(CN)n[nH]c(=O)c12 [Example 15-8] is less than 200 nM
A: Yes

Q: Find out if reported IC50 for CCOc1cc(-c2cnn(C)c2-c2c(F)c(C)c3ncc(Cl)cc3c2C#N)cc2c(CN)n[nH]c(=O)c12 (single isomer, unassigned) [Example 16-111] is less than 200 nM
A: Yes

Q: Find out if reported IC50 for COCc1nc2sc(-c3c(-c4ccc5c(=O)[nH]nc(CN)c5c4)cnn3C)c(C#N)c2cc1Cl [Example 4-272] is less than 200 nM
A: No

Q: Find out if reported IC50 for N#Cc1c(OC2CC2)cc(Cl)c(F)c1-c1c(-c2ccc3c(=O)[nH]nc(CN)c3c2)cnn1C(F)F (atropisomer, axis not shown; (M)) [Example 16-106] is less than 200 nM
A: No

Q: Find out if reported IC50 for CCOc1cc(-c2cnn(C)c2-c2c(F)c(C)c3cc(Cl)cnc3c2C#N)cc2c(CN)n[nH]c(=O)c12 (single isomer, unassigned) [Example 16-100] is less than 200 nM
A: No

Q: Find out if reported IC50 for Cn1ncc(-c2ccc3c(=O)[nH]nc(CN)c3c2)c1-c1c(F)ccc(OC2CC2)c1C#N (single isomer, unassigned) [Example 16-21] is less than 200 nM
A: No

----------
Recorded measurements of IC50, one per entry
# subject.of.test: PRMT5/MEP50 complex (Homo sapiens, UniProt O14744)
# Construct: purchased Reaction Biology Corporation
# procedure.text: PRMT5:MEP50 HotSpot Assay (full-length histone H2A substrate, plus and minus MTA)
# Format: biochemical
# test.settings: IC50 + 2 μM MTA, in the presence of 2 μM MTA

compound	IC50
Cc1c(F)c(-c2c(-c3cc(Cl)c4c(=O)[nH]nc(CN)c4c3)cnn2C)c(C#N)c2ncc(Cl)cc12 (atropisomer, axis not shown; (P)) [Example 16-97]	> 1000 nM

Q: Name the recorded IC50 for Cn1ncc(-c2cc(Cl)c3c(=O)[nH]nc(CN)c3c2)c1-c1c(F)cc2ccccc2c1C#N (single isomer, unassigned) [Example 16-11] .
A: 102 nM

Q: Name the recorded IC50 for Cn1ncc(-c2ccc3c(=O)[nH]nc(CN)c3c2)c1-c1c(F)cc2ncc(Cl)cc2c1C#N (single isomer, unassigned) [Example 16-31] .
A: 19.3 nM

Q: Name the recorded IC50 for CCOc1cc(-c2cnn(C)c2-c2c(F)c(C)c3ncc(Cl)cc3c2C#N)cc2c(CN)n[nH]c(=O)c12 (single isomer, unassigned) [Example 16-111] .
A: 451 nM

Q: Name the recorded IC50 for Cn1ncc(-c2ccc3c(=O)[nH]nc(CN)c3c2)c1-c1c(C#N)cc2ncccc2c1F (single isomer, unassigned) [Example 16-91] .
A: 454 nM

Q: Name the recorded IC50 for CCn1cccc(-c2c(-c3ccc4c(=O)[nH]nc(CN)c4c3)cnn2C)c1=O .
A: 9620 nM
